Overview of reported self-splicing fitness (ln) across a group of sequences:
# test.method.notes: self-splicing fitness, log relative to wild type (ln ratio); higher = more splicing; Tetrahymena group I intron in knt gene, E. coli kanamycin selection, DiMSum; sequences stand for … in CUCUCU…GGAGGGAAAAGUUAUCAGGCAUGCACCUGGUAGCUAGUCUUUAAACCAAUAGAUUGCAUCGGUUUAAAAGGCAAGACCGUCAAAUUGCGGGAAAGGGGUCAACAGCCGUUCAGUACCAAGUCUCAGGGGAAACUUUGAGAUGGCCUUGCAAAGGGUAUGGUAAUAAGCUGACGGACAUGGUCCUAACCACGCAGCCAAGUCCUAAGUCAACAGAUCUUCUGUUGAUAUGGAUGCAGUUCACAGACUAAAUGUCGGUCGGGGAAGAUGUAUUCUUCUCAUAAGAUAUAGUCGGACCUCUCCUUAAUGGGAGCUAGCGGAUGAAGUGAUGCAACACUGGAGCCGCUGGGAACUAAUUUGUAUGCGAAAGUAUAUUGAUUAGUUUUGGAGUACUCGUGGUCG;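 also: selection with 25 µg/mL kanamycin versus none on LB agar overnight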
# measurement.setup: 37 °C
readout.name: self-splicing fitness (ln)

residues | readout.name | numeric.result
GUAAAGCAAUAUUACGUUCA | self-splicing fitness (ln) | 0.177
GUUCAGCAAUAUUACGUUAU | self-splicing fitness (ln) | -0.207
UACGAGCAAUAUUACGUCCA | self-splicing fitness (ln) | -1.69
GCGUAGCAAUAUUACGGUAU | self-splicing fitness (ln) | -0.828
AUUAAGCAAUAUUACGUAGA | self-splicing fitness (ln) | -0.947
AGUUAGCAAUAUUACGGCGU | self-splicing fitness (ln) | 0.274
GCAAAGCAAUAUUACGAUAC | self-splicing fitness (ln) | -0.587
UAUCAGCAAUAUUACGUGCA | self-splicing fitness (ln) | 0.447
AGUGAGCAAUAUUACGAUGG | self-splicing fitness (ln) | -2.26
GUUUAGCAAUAUUACGUCAU | self-splicing fitness (ln) | -0.817
AGAUAGCAAUAUUACGGGGU | self-splicing fitness (ln) | -2.26
UACCAGCAAUAUUACGGGGC | self-splicing fitness (ln) | -2.72
GCGCAGCAAUAUUACGGCUG | self-splicing fitness (ln) | -1.7
AAUGAGCAAUAUUACGCCAC | self-splicing fitness (ln) | -2.41
UCUCAGCAAUAUUACGACAG | self-splicing fitness (ln) | -2.33
GAUCAGCAAUAUUACGAUGC | self-splicing fitness (ln) | 0.0112
